- MEASURED_ON: Potassium voltage-gated channel subfamily A member 5 (Homo sapiens, UniProt P22460)
- Sequence (P22460 whole entry): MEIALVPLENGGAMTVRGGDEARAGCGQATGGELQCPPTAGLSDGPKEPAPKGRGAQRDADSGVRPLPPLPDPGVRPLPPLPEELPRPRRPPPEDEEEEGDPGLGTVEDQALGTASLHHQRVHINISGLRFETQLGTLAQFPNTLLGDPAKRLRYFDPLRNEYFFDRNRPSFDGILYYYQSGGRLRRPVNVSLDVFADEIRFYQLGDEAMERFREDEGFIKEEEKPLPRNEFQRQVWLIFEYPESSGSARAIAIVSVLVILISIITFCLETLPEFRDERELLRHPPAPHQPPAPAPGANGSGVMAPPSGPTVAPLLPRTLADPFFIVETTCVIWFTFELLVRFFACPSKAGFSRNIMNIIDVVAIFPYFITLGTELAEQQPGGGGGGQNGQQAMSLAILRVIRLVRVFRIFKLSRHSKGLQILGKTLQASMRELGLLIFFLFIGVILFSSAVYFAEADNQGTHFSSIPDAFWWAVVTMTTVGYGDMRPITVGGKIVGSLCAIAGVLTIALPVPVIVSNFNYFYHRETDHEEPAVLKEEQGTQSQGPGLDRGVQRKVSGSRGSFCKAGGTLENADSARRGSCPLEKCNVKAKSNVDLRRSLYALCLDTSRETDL
- ASSAY_NAME: Inhibition of human KV1.5 expressed in mouse L929 cells assessed as decrease in ultrarapid potassium current amplitude relative to control
- Assay type: cell-based
- Parameters: concentration or dose not given beside the values
- CONDITIONS_USED: concentration not given here
READOUT_KIND: inhibition
Show the value, then the unit it is measured in.

Here's what some known entries look like.
COc1cccc2c1C(NC[C@]1(c3ccccc3)CC[C@@H](O)CC1)=NS2(=O)=O	14%
CCOP(=O)(NC(=O)O[C@H]1CC[C@](CNC2=NS(=O)(=O)c3cccc(OC)c32)(c2ccccc2)CC1)OCC	13%
CCNC(=O)N[C@H]1CC[C@](CNC2=NS(=O)(=O)c3cccc(OC)c32)(c2ccccc2)CC1	20%
COc1cccc2c1C(NC[C@]1(c3ccccc3)CC[C@H](N)CC1)=NS2(=O)=O	5%
COc1cccc2c1C(NC[C@]1(c3ccccc3)CC[C@H](NS(N)(=O)=O)CC1)=NS2(=O)=O	18%

Report inhibition for COc1cccc2c1C(NC[C@]1(c3ccccc3)CC[C@H](OC(=O)NCCO)CC1)=NS2(=O)=O please. 27%

Okay, and COc1cccc2c1C(NC[C@]1(c3ccccc3)CC[C@H](OC(=O)N(C)CCN(C)C)CC1)=NS2(=O)=O ? 4%

Okay, and COc1cccc2c1C(NC[C@]1(c3ccccc3)CC[C@H](OC(=O)NS(=O)(=O)c3ccccc3)CC1)=NS2(=O)=O ? 1%

----------
- ASSAY_NAME: AUC in rat at 3.6 mg/kg, po
- Type: ADME, organism-based
- CONDITIONS_USED: in vivo
READOUT_KIND: AUC (µM·h)
Give the value in µM·h but do not write µM·h after it.

Report AUC for COc1cccc2c1C(NC[C@]1(c3ccccc3)CC[C@H](OC(=O)Nc3nnc(C4CC4)s3)CC1)=NS2(=O)=O please. 0.2

----------
- MEASURED_ON: UniProt P22460
- ASSAY_NAME: Inhibition of human KV1.5 expressed in mouse L929 cells assessed as decrease in ultrarapid potassium current amplitude
Each entry below lists one item and its recorded pIC50 value.
# pIC50 = -log10(concentration in molar units)

COc1cccc2c1C(NC[C@]1(c3ccccc3)CC[C@H](OC(=O)Nc3nnc(C4CC4)s3)CC1)=NS2(=O)=O	7.04
COc1cccc2c1C(NC[C@]1(c3ccccc3)CC[C@H](NC(=O)OC(C)C)CC1)=NS2(=O)=O	7.28
COc1cccc2c1C(NC[C@]1(c3ccccc3)CC[C@H](Nc3ncccn3)CC1)=NS2(=O)=O	7.33

We now examine a further compound.
Report pIC50 for CCS(=O)(=O)N[C@H]1CC[C@](CNC2=NS(=O)(=O)c3cccc(OC)c32)(c2ccccc2)CC1 please. 7.22

----------
- MEASURED_ON: L-type calcium channel, benzothiazepine binding site (Rattus norvegicus, UniProt P22002+P27732+Q02485)
- ASSAY_NAME: Inhibition of rat L-type calcium channel benzothiazepine binding site at 10 uM relative to control
Each entry below lists one item and its recorded inhibition at 10 µM value.
Give the value in % but do not write % after it.

COc1cccc2c1C(NC[C@]1(c3ccccc3)CC[C@H](O)CC1)=NS2(=O)=O	0

We now examine a further compound.
Report inhibition at 10 µM for COc1cccc2c1C(NC[C@]1(c3ccccc3)CC[C@H](NC(=O)OC(C)C)CC1)=NS2(=O)=O please. 15

----------
- ASSAY_NAME: Metabolic stability in mouse liver microsomes assessed as compound remaining at 3 uM after 10 mins
- Assay type: ADME
- CONDITIONS_USED: read-out: Stability
Please use Fulfilled for remaining at 10 min, 3 µM under 50% and Not fulfilled for everything else, ties included.

# count of solved cases: 4
COc1cccc2c1C(NC[C@]1(c3ccccc3)CC[C@H](O)CC1)=NS2(=O)=O	Not fulfilled
CCN(CC)S(=O)(=O)N[C@H]1CC[C@](CNC2=NS(=O)(=O)c3cccc(OC)c32)(c2ccccc2)CC1	Fulfilled
COc1cccc2c1C(NC[C@]1(c3ccccc3)CC[C@H](Nc3ncccn3)CC1)=NS2(=O)=O	Fulfilled
CCNC(=O)O[C@H]1CC[C@](CNC2=NS(=O)(=O)c3cccc(OC)c32)(c2ccccc2)CC1	Fulfilled

For this compound, is remaining at 10 min, 3 µM lower than 50%? COc1cccc2c1C(NC[C@]1(c3ccccc3)CC[C@H](n3cnnn3)CC1)=NS2(=O)=O Not fulfilled

Okay, and COc1cccc2c1C(NC[C@]1(c3ccccc3)CC[C@H](NC(=O)OC(C)C)CC1)=NS2(=O)=O ? Fulfilled

Okay, and COc1cccc2c1C(NC[C@]1(c3ccccc3)CC[C@H](NC(=O)OCC(F)(F)F)CC1)=NS2(=O)=O ? Fulfilled

Okay, and COc1cccc2c1C(NC[C@]1(c3ccccc3)CC[C@H](OC(=O)NC3CC3)CC1)=NS2(=O)=O ? Fulfilled

Okay, and COc1cccc2c1C(NC[C@]1(c3ccccc3)CC[C@@H](O)CC1)=NS2(=O)=O ? Not fulfilled

Okay, and CCS(=O)(=O)N[C@H]1CC[C@](CNC2=NS(=O)(=O)c3cccc(OC)c32)(c2ccccc2)CC1 ? Fulfilled

----------
- ASSAY_NAME: Metabolic stability in human liver microsomes assessed as compound remaining at 3 uM after 10 mins
- Format: ADME
- CONDITIONS_USED: read-out: Stability
Please use y for remaining at 10 min, 3 µM under 7% and n for everything else, ties included.

COc1cccc2c1C(NC[C@]1(c3ccccc3)CC[C@H](OC(=O)NC3CC3)CC1)=NS2(=O)=O	n
COc1cccc2snc(NCC(C)(C)c3ccccc3)c12	n
CCS(=O)(=O)N[C@H]1CC[C@](CNC2=NS(=O)(=O)c3cccc(OC)c32)(c2ccccc2)CC1	n
COc1cccc2c1C(NC[C@]1(c3ccccc3)CC[C@H](O)CC1)=NS2(=O)=O	n
COc1cccc2c1C(NC[C@]1(c3ccccc3)CC[C@H](OC(=O)Nc3ccc(N(C)C)cc3)CC1)=NS2(=O)=O	y

For this compound, is remaining at 10 min, 3 µM lower than 7%? COc1cccc2c1C(NC[C@]1(c3ccccc3)CC[C@H](Nc3ncccn3)CC1)=NS2(=O)=O y

Okay, and CCNC(=O)O[C@H]1CC[C@](CNC2=NS(=O)(=O)c3cccc(OC)c32)(c2ccccc2)CC1 ? y

Okay, and CCN(CC)S(=O)(=O)N[C@H]1CC[C@](CNC2=NS(=O)(=O)c3cccc(OC)c32)(c2ccccc2)CC1 ? y

----------
Each entry below lists one item and its recorded IC50 value.
- MEASURED_ON: Potassium voltage-gated channel subfamily A member 5 (Homo sapiens, UniProt P22460)
- ASSAY_NAME: Inhibition of human KV1.5 expressed in mouse L929 cells assessed as decrease in ultrarapid potassium current amplitude
Give the value in nM but do not write nM after it.

Here's what some known entries look like.
COc1cccc2c1C(NC[C@]1(c3ccccc3)CC[C@H](O)CC1)=NS2(=O)=O	34
COc1cccc2c1C(NC[C@]1(c3ccccc3)CC[C@H](OC(=O)NCCC(F)(F)F)CC1)=NS2(=O)=O	89
CCOC(=O)N[C@H]1CC[C@](CNC2=NS(=O)(=O)c3cccc(OC)c32)(c2ccccc2)CC1	55
COc1cccc2c1C(NC[C@]1(c3ccccc3)CC[C@H](OC(=O)NC3CC3)CC1)=NS2(=O)=O	170
CCN(CC)S(=O)(=O)N[C@H]1CC[C@](CNC2=NS(=O)(=O)c3cccc(OC)c32)(c2ccccc2)CC1	52

Enter reported IC50 observed with Potassium voltage-gated channel subfamily A member 5 (Homo sapiens, UniProt P22460) for COc1cccc2c1C(NC[C@]1(c3ccccc3)CC[C@H](n3cnnn3)CC1)=NS2(=O)=O 32

Okay, and COc1cccc2snc(NCC(C)(C)c3ccccc3)c12 ? 24

----------
Each entry below lists one item and its recorded concentration at 5 min value.
- ASSAY_NAME: Plasma concentration in rat at 3 mg/kg, iv administered as infusion for 5 mins
- Type: ADME, organism-based
Give the value in µM but do not write µM after it.

Here's what some known entries look like.
COc1cccc2c1C(NC[C@]1(c3ccccc3)CC[C@H](OC(=O)Nc3nnc(C4CC4)s3)CC1)=NS2(=O)=O	72
COc1cccc2c1C(NC[C@]1(c3ccccc3)CC[C@H](NC(=O)OC(C)C)CC1)=NS2(=O)=O	38

We now examine a further molecule.
Report concentration at 5 min for COc1cccc2c1C(NC[C@]1(c3ccccc3)CC[C@H](O)CC1)=NS2(=O)=O please. 153

----------
- ASSAY_NAME: Metabolic stability in human liver microsomes assessed as compound remaining at 3 uM after 10 mins
- Format: ADME
- CONDITIONS_USED: read-out: Stability
READOUT_KIND: remaining at 10 min, 3 µM (%)
Give the value in % but do not write % after it.

COc1cccc2c1C(NC[C@]1(c3ccccc3)CC[C@H](NC(=O)OCC(F)(F)F)CC1)=NS2(=O)=O	95
COc1cccc2c1C(NCC(C)(C)c1ccccc1)=NC2=O	99

We now examine a further molecule.
Report remaining at 10 min, 3 µM for COc1cccc2c1C(NC[C@]1(c3ccccc3)CC[C@H](n3cnnn3)CC1)=NS2(=O)=O please. 56
